Source: ChEMBL document CHEMBL4038324

Molecular target: Cannabinoid receptor 2 (Homo sapiens, UniProt P34972)
Sequence (P34972 whole entry): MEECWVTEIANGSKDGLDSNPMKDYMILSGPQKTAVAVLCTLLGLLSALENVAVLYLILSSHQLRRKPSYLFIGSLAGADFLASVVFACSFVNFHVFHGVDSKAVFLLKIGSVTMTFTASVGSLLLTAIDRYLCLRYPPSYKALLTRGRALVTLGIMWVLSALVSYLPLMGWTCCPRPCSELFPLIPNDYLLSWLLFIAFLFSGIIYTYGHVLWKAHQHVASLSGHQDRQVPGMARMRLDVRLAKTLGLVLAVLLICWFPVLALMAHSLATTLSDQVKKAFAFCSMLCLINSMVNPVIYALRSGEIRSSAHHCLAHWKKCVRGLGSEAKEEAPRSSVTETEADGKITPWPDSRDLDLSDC
Experiment: Agonist activity at human CB2 receptor expressed in CHO cells assessed as induction of Ca2+ flux after 10 mins by Fluor-4 AM dye based assay
Type: functional, cell-based
Kindly supply the reported log10 of EC50 values for the records listed here.
Field: value | Transform: log10 | Quantity: EC50 | Unit: nM

INPUT: // query log10 of EC50 value for entry "O=C(NC12CC3CC(CC(C3)C1)C2)c1c[nH]c2ccccc12"
OUTPUT: 2.80

INPUT: // query log10 of EC50 value for entry "N#CCCCCn1c(C(=O)NC23CC4CC(CC(C4)C2)C3)cc2ccccc21"
OUTPUT: 1.88

INPUT: // query log10 of EC50 value for entry "O=C(NC12CC3CC(CC(C3)C1)C2)c1cn(CCN2CCOCC2)c2ccccc12"
OUTPUT: 1.77

INPUT: // query log10 of EC50 value for entry "CCCCCn1cc(C(=O)NC23CC4CC(CC(C4)C2)C3)c2ccccc21"
OUTPUT: 1.77

INPUT: // query log10 of EC50 value for entry "O=C(NC12CC3CC(CC(C3)C1)C2)c1cc2ccccc2n1CCCCC(F)F"
OUTPUT: 1.96

INPUT: // query log10 of EC50 value for entry "CC(C)(C)NC(=O)c1cc2ccccc2n1CCCCCO"
OUTPUT: 2.63

INPUT: // query log10 of EC50 value for entry "O=CCCCCn1c(C(=O)NC23CC4CC(CC(C4)C2)C3)cc2ccccc21"
OUTPUT: 2.26

INPUT: // query log10 of EC50 value for entry "N#CCCn1cc(C(=O)NC23CC4CC(CC(C4)C2)C3)c2ccccc21"
OUTPUT: 2.26

INPUT: // query log10 of EC50 value for entry "O=C(NC12CC3CC(CC(C3)C1)C2)c1[nH]c2ccccc2c1F"
OUTPUT: 3.58

INPUT: // query log10 of EC50 value for entry "N#CCn1cc(C(=O)NC23CC4CC(CC(C4)C2)C3)c2ccccc21"
OUTPUT: 2.61

INPUT: // query log10 of EC50 value for entry "O=C(NC12CC3CC(CC(C3)C1)C2)c1cc2ccccc2[nH]1"
OUTPUT: 2.99

INPUT: // query log10 of EC50 value for entry "N#CCCCn1c(C(=O)NC23CC4CC(CC(C4)C2)C3)cc2ccccc21"
OUTPUT: 2.43

INPUT: // query log10 of EC50 value for entry "O=C(NC12CC3CC(CC(C3)C1)C2)c1c(F)c2ccccc2n1CCCCCO"
OUTPUT: 2.79

INPUT: // query log10 of EC50 value for entry "NCCCCCn1c(C(=O)NC23CC4CC(CC(C4)C2)C3)cc2ccccc21"
OUTPUT: 3.93

INPUT: // query log10 of EC50 value for entry "N#CCCCn1cc(C(=O)NC23CC4CC(CC(C4)C2)C3)c2ccccc21"
OUTPUT: 1.49

INPUT: // query log10 of EC50 value for entry "O=C(NC12CC3CC(CC(C3)C1)C2)c1cc2ccccc2n1CCCCCF"
OUTPUT: 2.15

INPUT: // query log10 of EC50 value for entry "O=C(NC12CC3CC(CC(C3)C1)C2)c1cn(CC2CCOCC2)c2ccccc12"
OUTPUT: 1.58
